- TEST_METHOD_NOTES: qHTS assay to identify small molecule antagonists of the retinoid acid receptor (RAR) signaling pathway - cell viability counter screen (AID 1159551); note: % is set by controls: 0 for no effect and ±100 for the full control effect; nearly all actives have a fitted effect of over 35% in size
- CONDITION_DESCRIPTION: C3RL4 cells viability, ATP luminescence (CellTiter-Glo), 6 h; series mostly up to 92.4 µM
Results filed as inconclusive are left out. Calls of active or inactive are those of the source. Calls come from the whole dose curve; as a rule, active = well fitted cell-killing curve with a large enough effect in the repeat runs; inconclusive = weak or mixed curves, or effect the other way; inactive = flat fitted curve, though single readings scatter.
OBSERVED_PROPERTY: activity change, negative = cytotoxicity

[[record]]
compound = "Nc1ccc(/C=C/c2ccc(N)cc2S(=O)(=O)O)c(S(=O)(=O)O)c1"
observed_property = "activity change, negative = cytotoxicity"
test_result = "2.39% [at 0.349 µM] (inactive)"

[[record]]
compound = "C=CCCCCCCCCCCC"
observed_property = "activity change, negative = cytotoxicity"
test_result = "5.5% [at 8.39 µM] (inactive)"

[[record]]
compound = "Nc1c(NC/C=C\\COc2cc(CN3CCCCC3)ccn2)c(=O)c1=O"
observed_property = "activity change, negative = cytotoxicity"
test_result = "3.28% [at 19 µM] (inactive)"

[[record]]
compound = "Cc1nc([N+](=O)[O-])cn1-c1ccc([N+](=O)[O-])cc1"
observed_property = "activity change, negative = cytotoxicity"
test_result = "inactive"

[[record]]
compound = "CCC(O)C(C)(C)C (configuration not stated)"
observed_property = "activity change, negative = cytotoxicity"
test_result = "inactive"

[[record]]
compound = "CCCCCC(=O)OCC"
observed_property = "activity change, negative = cytotoxicity"
test_result = "inactive"

[[record]]
compound = "CCCC(C)CC (configuration not stated)"
observed_property = "activity change, negative = cytotoxicity"
test_result = "inactive"

[[record]]
compound = "C=COCCOCCOC=C"
observed_property = "activity change, negative = cytotoxicity"
test_result = "inactive"

[[record]]
compound = "C[N+](C)(C)CC(O)CCl (configuration not stated)"
observed_property = "activity change, negative = cytotoxicity"
test_result = "inactive"

[[record]]
compound = "Cc1cccc(Nc2ccncc2S(=O)(=O)NC(=O)NC(C)C)c1"
observed_property = "activity change, negative = cytotoxicity"
test_result = "inactive"

[[record]]
compound = "CC(=O)OC(C)c1ccccc1 (configuration not stated)"
observed_property = "activity change, negative = cytotoxicity"
test_result = "inactive"

[[record]]
compound = "CC1CCC(C(C)(C)S)C(=O)C1 (configuration not stated)"
observed_property = "activity change, negative = cytotoxicity"
test_result = "inactive"

[[record]]
compound = "OCCCCCCCl"
observed_property = "activity change, negative = cytotoxicity"
test_result = "inactive"

[[record]]
compound = "COc1ccc(NS(=O)(=O)c2ccc(N)cc2)nn1"
observed_property = "activity change, negative = cytotoxicity"
test_result = "inactive"

[[record]]
compound = "CC(C)SCc1ccco1"
observed_property = "activity change, negative = cytotoxicity"
test_result = "inactive"

[[record]]
compound = "CCC(=O)c1ccc(O)cc1"
observed_property = "activity change, negative = cytotoxicity"
test_result = "inactive"

[[record]]
compound = "Cc1oc(=O)oc1CN1CCN(c2cc3c(cc2F)c(=O)c(C(=O)O)c2n3C(C)S2)CC1 (configuration not stated)"
observed_property = "activity change, negative = cytotoxicity"
test_result = "inactive"

